Here's a batch of compounds along with measured MIC for E. faecium ATCC51559 MDR.
VALUE KIND: MIC (µg/mL)

These solved cases illustrate the format of a correct answer.
- COMPOUND: "CC(=O)NC[C@H]1CN(c2ccc(N3CCOCC3)c(F)c2)C(=O)O1 [Linezolid, reference compound]"
  MIC (µg/mL): 0.5
- COMPOUND: "CC(=O)NC[C@H]1CN(c2ccc(N3CCC(n4cc([N+](=O)[O-])cn4)C3)c(F)c2)C(=O)O1 (stereo partly drawn) [Ex. 9]"
  MIC (µg/mL): 1
- COMPOUND: "CC(=O)NC[C@H]1CN(c2ccc(N3CCC(n4cc(-c5ccncn5)cn4)C3)c(F)c2)C(=O)O1 (stereo partly drawn) [Ex. 11]"
  MIC (µg/mL): 0.25
- COMPOUND: "CC(=O)NC[C@H]1CN(c2ccc(N3CCC(n4cc(-c5ccncc5)cn4)C3)c(F)c2)C(=O)O1 (stereo partly drawn) [Ex. 18]"
  MIC (µg/mL): 0.25
- COMPOUND: "CC(=O)NC[C@H]1CN(c2ccc(N3CCC(n4cc(Br)cn4)C3)c(F)c2)C(=O)O1 (stereo partly drawn) [Ex. 17]"
  MIC (µg/mL): 0.5

[I] CC(=O)NC[C@H]1CN(c2ccc(N3CCC(n4nnc(-c5cccs5)n4)C3)c(F)c2)C(=O)O1 (stereo partly drawn) [Ex. 15]
[II] CC(=O)NC[C@H]1CN(c2ccc(N3CCC(n4ccnn4)C3)c(F)c2)C(=O)O1 (stereo partly drawn) [Ex. 3]
[III] CC(=O)NC[C@H]1CN(c2ccc(N3CCC(n4ccc(C(F)(F)F)n4)C3)c(F)c2)C(=O)O1 (stereo partly drawn) [Ex. 26]
List from greatest to least MIC. Output spec: labels arranged per the requested ranking.
III, II, I
(III: 1 µg/mL, II: 0.5 µg/mL, I: 0.25 µg/mL)

###

Here's a batch of molecules along with measured MIC for S. pneumoniae ATCC49619 PR.
VALUE KIND: MIC (µg/mL)

These solved cases illustrate the format of a correct answer.
- MOLECULE: "CC(=O)NC[C@H]1CN(c2ccc(N3CCC(n4ccnn4)C3)c(F)c2)C(=O)O1 (stereo partly drawn)"
  UNIT TEXT: "µg/mL"
  OBSERVED RESULT: 1
- MOLECULE: "CC(=O)NC[C@H]1CN(c2ccc(N3CCOCC3)c(F)c2)C(=O)O1 [Linezolid, reference compound]"
  UNIT TEXT: "µg/mL"
  OBSERVED RESULT: 1
- MOLECULE: "CC(=O)NC[C@H]1CN(c2ccc(N3CCC(n4ccc(C(F)(F)F)n4)C3)c(F)c2)C(=O)O1 (stereo partly drawn)"
  UNIT TEXT: "µg/mL"
  OBSERVED RESULT: 0.5
- MOLECULE: "CC(=O)NC[C@H]1CN(c2ccc(N3CCC(n4cc(-c5ccncc5)cn4)C3)c(F)c2)C(=O)O1 (stereo partly drawn)"
  UNIT TEXT: "µg/mL"
  OBSERVED RESULT: 0.06
- MOLECULE: "CC(=O)NC[C@H]1CN(c2ccc(N3CCC(n4cc(-c5ccncn5)cn4)C3)c(F)c2)C(=O)O1 (stereo partly drawn)"
  UNIT TEXT: "µg/mL"
  OBSERVED RESULT: 0.125
- MOLECULE: "CC(=O)NC[C@H]1CN(c2ccc(N3CCC(n4cc([N+](=O)[O-])cn4)C3)c(F)c2)C(=O)O1 (stereo partly drawn)"
  UNIT TEXT: "µg/mL"
  OBSERVED RESULT: 0.25
- MOLECULE: "CC(=O)NC[C@H]1CN(c2ccc(N3CCC(n4cc(-c5ccc([N+](=O)[O-])cc5)cn4)C3)c(F)c2)C(=O)O1 (stereo partly drawn)"
  UNIT TEXT: "µg/mL"
  OBSERVED RESULT: 0.125

[I] CC(=O)NC[C@H]1CN(c2ccc(N3CCC(n4nnc(-c5cccs5)n4)C3)c(F)c2)C(=O)O1 (stereo partly drawn)
[II] CC(=O)NC[C@H]1CN(c2ccc(N3CCC(n4cc(Br)cn4)C3)c(F)c2)C(=O)O1 (stereo partly drawn)
Between I and II , whose recorded MIC is greater? Lab log: write the label of the selected item as the result.
II
(II: 0.25 µg/mL, I: 0.125 µg/mL)
